All figures here come from PubChem BioAssay (NCI).

Each item that follows carries a reported growth inhibition.
# method.summary: NCI Yeast Anticancer Drug Screen. Data for the cln2 rad14 strain (AID 165);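 further: 0% = growth equal to vehicle treated cultures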
# conditions: S. cerevisiae cln2 rad14 strain, at 50.0 µM (retest, dose inferred, filed as 5.0), active compounds read high
About 79,000 compounds went through this panel and 15% of them were active in at least one assay; those are over-represented in the sample as a whole.
measure: growth inhibition (%)

[[record]]
molecule = "C[C@]12CC[C@H](O)C[C@@H]1CC[C@@H]1[C@@H]2C(=O)C[C@]2(C)C3=CC(=O)O[C@H]3C[C@@H]12"
measure = "growth inhibition"
value_observed = 94

[[record]]
molecule = "Cn1cc(NC(=O)Nc2cc(C(=O)Nc3cc(C(=O)Nc4ccc5cc(S(=O)(=O)O)cc(S(=O)(=O)O)c5c4)n(C)c3)n(C)c2)cc1C(=O)Nc1cc(C(=O)Nc2ccc3cc(S(=O)(=O)O)cc(S(=O)(=O)O)c3c2)n(C)c1"
measure = "growth inhibition"
value_observed = 99

[[record]]
molecule = "ClCc1nnc2n1-c1ccc(Cl)cc1SC2"
measure = "growth inhibition"
value_observed = 88

[[record]]
molecule = "O=C(CCl)Oc1c(Br)cc(-c2ccccc2)cc1Br"
measure = "growth inhibition"
value_observed = 97

[[record]]
molecule = "COc1ccc2c(c1)CC[C@@H]1[C@@H]2CC[C@]2(C)/C(=N/OCCN3CCCCC3)CC[C@@H]12"
measure = "growth inhibition"
value_observed = 96

[[record]]
molecule = "C[N+](C)(C)c1nc(N)nc2c1ncn2C1OC(CO)C(O)C1O (stereo not given)"
measure = "growth inhibition"
value_observed = -2

[[record]]
molecule = "S=C(N/N=C1\\C=Cc2ccccc2C1)N/N=C1\\C=Cc2ccccc2C1"
measure = "growth inhibition"
value_observed = 4

[[record]]
molecule = "CC(=O)OC1CCC2(C)C3CCC4(C)C(C(C)CCCC(C)C)CCC4C3CCC23OC13C (stereo not given)"
measure = "growth inhibition"
value_observed = 6

[[record]]
molecule = "OCc1cccc2c1Oc1ccccc1S2"
measure = "growth inhibition"
value_observed = 17

[[record]]
molecule = "O=C1NC2(C=Cc3c(ccc4ccccc34)O2)Oc2ccccc21 (stereo not given)"
measure = "growth inhibition"
value_observed = 48

[[record]]
molecule = "CS(=O)(=O)OCCCN(CCCOS(C)(=O)=O)c1ccc(C=Nc2ccc(-c3csc(COc4ccc(Br)cc4Br)n3)cc2)cc1"
measure = "growth inhibition"
value_observed = 83

[[record]]
molecule = "O=C1/C(=C/c2ccccc2)CCCc2ccccc21"
measure = "growth inhibition"
value_observed = 14

[[record]]
molecule = "CC(CO)(Nc1ccc([N+](=O)[O-])cc1[N+](=O)[O-])C(=O)O (stereo not given)"
measure = "growth inhibition"
value_observed = 99

[[record]]
molecule = "CCCCC(CCc1ccccc1)(C(=O)O)c1ccccc1 (stereo not given)"
measure = "growth inhibition"
value_observed = 99

[[record]]
molecule = "[NH-]c1ccccc1[S-].[NH-]c1ccccc1[S-].[Zn]"
measure = "growth inhibition"
value_observed = 98

[[record]]
molecule = "O=[N+]([O-])C1C(c2ccccc2)CC=CC1N1CCCC1 (stereo not given)"
measure = "growth inhibition"
value_observed = 85

[[record]]
molecule = "O=C(CCN(Cc1ccccc1)Cc1ccccc1)c1ccc2ccccc2c1"
measure = "growth inhibition"
value_observed = 61

[[record]]
molecule = "Nc1ccc(Cc2ccc(N)cc2[N+](=O)[O-])c([N+](=O)[O-])c1"
measure = "growth inhibition"
value_observed = 31

[[record]]
molecule = "Nc1ccc(S(=O)(=O)O)c2cccc(S(=O)(=O)O)c12"
measure = "growth inhibition"
value_observed = -7

[[record]]
molecule = "CS(=O)(=O)c1nc(Cl)c(Cl)c(C#N)c1Cl"
measure = "growth inhibition"
value_observed = 99

[[record]]
molecule = "COC(=O)c1ccc(/C=C/C2=CC(=O)C=CC2=O)cc1"
measure = "growth inhibition"
value_observed = 28

[[record]]
molecule = "CC(C)CCCCCCCCCCCCC(=O)NCC(=O)NC1C(C)OC(Nc2ncnc3nc[nH]c23)C(O)C1O (stereo not given)"
measure = "growth inhibition"
value_observed = 10

[[record]]
molecule = "COc1ccc(CN(C)c2c(C)ccc3ccccc23)cc1"
measure = "growth inhibition"
value_observed = 59

[[record]]
molecule = "CC1CC(c2ccccc2)CC(C)N1c1ccc2ccccc2c1 (stereo not given)"
measure = "growth inhibition"
value_observed = 61

[[record]]
molecule = "COC(=O)c1ccc(OC)cc1"
measure = "growth inhibition"
value_observed = -7

[[record]]
molecule = "O=CNNC(=O)Nc1ccc(Cl)cc1"
measure = "growth inhibition"
value_observed = 19

[[record]]
molecule = "CCOC(C)c1ccccc1 (stereo not given)"
measure = "growth inhibition"
value_observed = 59

[[record]]
molecule = "CC1CN(CC(O)c2ccc(Br)cc2)CC(C)O1 (stereo not given)"
measure = "growth inhibition"
value_observed = 46

[[record]]
molecule = "CN(C)c1nc(N(C)C)oc(=[N+](C)C)n1"
measure = "growth inhibition"
value_observed = 1

[[record]]
molecule = "CN(C)CCOc1ccc2c(c1)C(=O)/C(=C\\c1ncc([N+](=O)[O-])n1C)C2"
measure = "growth inhibition"
value_observed = 46

[[record]]
molecule = "C=CCC(O)C(=O)OC1CC(C)CCC1C(C)(C)c1ccccc1 (stereo not given)"
measure = "growth inhibition"
value_observed = 98

[[record]]
molecule = "O=[N+]([O-])c1cccc2nc3ccccc3c(NCCO)c12"
measure = "growth inhibition"
value_observed = 96

[[record]]
molecule = "O=c1oc2cc(N=Cc3ccc4c(c3)OCO4)ccc2c2ccccc12"
measure = "growth inhibition"
value_observed = 8

[[record]]
molecule = "O=C(/C=C/c1ccccc1)C1(c2ccccc2)CC1"
measure = "growth inhibition"
value_observed = -34

[[record]]
molecule = "CCOC(=O)/C(=C/c1ccccn1)C(=O)c1ccccc1"
measure = "growth inhibition"
value_observed = 85

[[record]]
molecule = "CC(=O)OC1(c2ccccc2)N=C(c2ccccc2)N=C1c1ccccc1 (stereo not given)"
measure = "growth inhibition"
value_observed = 28

[[record]]
molecule = "C=C1C(=O)OC2C/C(C)=C/CC/C(C)=C/CCC3(COC(C)=O)OC3CC12 (stereo not given)"
measure = "growth inhibition"
value_observed = 95

[[record]]
molecule = "CCCCCc1ccc2cc(C(=O)O)[nH]c2c1"
measure = "growth inhibition"
value_observed = 59

[[record]]
molecule = "O=C1OCc2cccc3cccc1c23"
measure = "growth inhibition"
value_observed = 38

[[record]]
molecule = "CC(=O)N(c1ccccc1)c1nc2ccccc2s1"
measure = "growth inhibition"
value_observed = -6

[[record]]
molecule = "CCOC(=O)C(CCSC)C(=O)OCC"
measure = "growth inhibition"
value_observed = -1

[[record]]
molecule = "O=C1C2=Cc3ccccc3CCN2c2ccccc21"
measure = "growth inhibition"
value_observed = -8

[[record]]
molecule = "Clc1ccc2oc(N3CCCCC3)nc2c1"
measure = "growth inhibition"
value_observed = 6

[[record]]
molecule = "CCN(CC)CCOc1ccc(-c2nc3cc(Cl)ccc3s2)cc1"
measure = "growth inhibition"
value_observed = 84

[[record]]
molecule = "O=C(C=P(c1ccccc1)(c1ccccc1)c1ccccc1)CC(=S)CC(=O)C=P(c1ccccc1)(c1ccccc1)c1ccccc1"
measure = "growth inhibition"
value_observed = 61

